Source of measurements: PubChem BioAssay (NCATS)

Test: Cellular Toxicity (caspase-3) BJ (AID 658);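 further: cells exposed to compound for 16 hours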
Settings: BJ fibroblasts, luminescence, normalized: DMSO 0%, staurosporine 100%; series mostly up to 91.7 µM
Calls of active or inactive are those of the source. The call rests on the fitted dose curve; in most records, active means well fitted curve in the direction sought with a large enough effect; inconclusive means small, poorly fitted or top-dose-only effect, or another doubt; inactive means no such curve, though single readings can be large or run the other way.
MEASUREMENT LABEL: outcome

{"MOLECULE": "C=CC(C)(O)CCC=C(C)C (centres undefined)", "READING": "inactive"}
{"MOLECULE": "C=C(C)[C@H]1CC=C(C)C(=O)C1", "READING": "inactive"}
{"MOLECULE": "COS(C)(=O)=O", "READING": "inactive"}
{"MOLECULE": "CN(C)CCOC(c1ccccc1)c1ccccc1 (tested in a mixture with another compound)", "READING": "inactive"}

====

System: AA1029
Test: qHTS profiling for inhibitors of Plasmodium falciparum proliferation (AID 504749); further: nearly all actives have a fitted effect of over 60% in size
Details: P. falciparum in erythrocytes, SYBR Green DNA, 72 h; series mostly up to 12.8 µM
Procedure: NIH National Institute of Allergy and Infectious Diseases [NIAID] NIH Chemical Genomics Center [NCGC] […] Because mature erythrocytes lack DNA, only Plasmodium-derived DNA is detected. NCGC Assay Protocol Summary: The SYBR Green viability assay was adapted from a method described previously (Plouffe et al., 2008). […] The following morning, fluorescence intensity at 485(14) nm excitation and 535(25) nm emission wavelengths was measured on an EnVision (Perkin Elmer) plate reader. […]
Records with an inconclusive call do not appear. Activity calls are given as the source filed them. Calls follow the shape of the dose curve; as a rule, active = well fitted inhibition curve with a large enough effect; inconclusive = small, poorly fitted or top-dose-only effect; inactive = flat fitted curve, though single readings scatter.
Possible outcomes: active, inactive

{"COMPOUND": "C[n+]1ccccc1/C=N\\O", "GROUP": "inactive"}
{"COMPOUND": "O=C(Cc1cccs1)NC1C(=O)N2C(C(=O)[O-])=C(C[n+]3ccccc3)CSC12 (centres undefined)", "GROUP": "inactive"}
{"COMPOUND": "CC(C)(O/N=C(\\C(=O)N[C@@H]1C(=O)N2C(C(=O)[O-])=C(C[n+]3ccccc3)CS[C@@H]12)c1csc(N)n1)C(=O)O", "GROUP": "inactive"}
{"COMPOUND": "CC(=O)OCC1=C(C(=O)O)N2C(=O)[C@@H](NC(=O)CSc3ccncc3)[C@@H]2SC1", "GROUP": "inactive"}
{"COMPOUND": "CCN[C@@H]1C[C@H](C)S(=O)(=O)c2sc(S(N)(=O)=O)cc21", "GROUP": "inactive"}
{"COMPOUND": "COc1ccccc1OC[C@H](O)COC(N)=O", "GROUP": "inactive"}
{"COMPOUND": "CO[C@H]1C[C@@H](O[C@@H]2[C@H](C)[C@H](O[C@@H]3O[C@@H](C)C[C@@H](N(C)C)[C@@H]3O)[C@H](C)C[C@]3(CO3)C(=O)[C@H](C)[C@H](O)[C@H](C)[C@H](C)OC(=O)[C@@H]2C)O[C@@H](C)[C@H]1O", "GROUP": "inactive"}
{"COMPOUND": "C[C@@H]1CCC[C@H](C)N1NC(=O)c1ccc(Cl)c(S(N)(=O)=O)c1", "GROUP": "inactive"}
{"COMPOUND": "NC(=O)OC[C@H](O)COc1ccc(Cl)cc1", "GROUP": "inactive"}
{"COMPOUND": "C[C@H](NCCc1ccc(O)cc1)[C@@H](O)c1ccc(O)cc1", "GROUP": "inactive"}
{"COMPOUND": "CC(=O)Nc1c(I)c(C(=O)N[C@H]2[C@@H](O)[C@H](O)[C@H](CO)O[C@@H]2O)c(I)c(N(C)C(C)=O)c1I", "GROUP": "inactive"}
{"COMPOUND": "NC(N)=NC[C@@H]1COC2(CCCCC2)O1", "GROUP": "inactive"}
{"COMPOUND": "CN1CCCC[C@@H]1CCN1c2ccccc2Sc2ccc(S(C)=O)cc21 (some centres undefined)", "GROUP": "inactive"}
{"COMPOUND": "CC(C)(C)NC[C@H](O)c1cc(O)cc(O)c1", "GROUP": "inactive"}
{"COMPOUND": "CC(C)NC[C@H](O)c1cc(O)cc(O)c1", "GROUP": "inactive"}
{"COMPOUND": "CC1(C)O[C@@H]2C[C@H]3[C@H]4C[C@H](F)C5=CC(=O)C=C[C@@]5(C)[C@@H]4[C@H](O)C[C@]3(C)[C@]2(C(=O)CO)O1", "GROUP": "inactive"}
{"COMPOUND": "CCC[C@H]1C(=O)N2C(N(C)C)=Nc3ccc(C)cc3N2C1=O", "GROUP": "inactive"}
{"COMPOUND": "CCn1cc(C(=O)O)c(=O)c2cc(F)c(N3CCN[C@@H](C)C3)c(F)c21", "GROUP": "inactive"}
{"COMPOUND": "CCCN(CCC)C(=O)[C@@H](CCC(=O)O)NC(=O)c1ccccc1", "GROUP": "inactive"}
{"COMPOUND": "CO[C@]1(NC(=O)CSCC#N)C(=O)N2C(C(=O)O)=C(CSc3nnnn3C)CS[C@H]21", "GROUP": "inactive"}
{"COMPOUND": "CN1[C@@H]2CC[C@H]1CC(OC(=O)[C@@H](O)c1ccccc1)C2 (some centres undefined)", "GROUP": "inactive"}
{"COMPOUND": "COc1ccc(C[C@@H]2c3cc(OC)c(OC)cc3CC[N@+]2(C)CCC(=O)OCCCCCOC(=O)CC[N@@+]2(C)CCc3cc(OC)c(OC)cc3[C@H]2Cc2ccc(OC)c(OC)c2)cc1OC", "GROUP": "inactive"}
{"COMPOUND": "CCN1C(=O)N[C@@H](c2ccccc2)C1=O", "GROUP": "inactive"}
{"COMPOUND": "CCCN[C@@H](C)C(=O)Nc1ccccc1C", "GROUP": "inactive"}
{"COMPOUND": "C[C@@H]1COc2c(N3CCN(C)CC3)c(F)cc3c(=O)c(C(=O)O)cn1c23", "GROUP": "inactive"}
{"COMPOUND": "CO/N=C(/C(=O)NC1C(=O)N2C(C(=O)O)=C(CSc3nc(=O)c(O)nn3C)CSC12)c1csc(N)n1 (centres undefined)", "GROUP": "inactive"}
{"COMPOUND": "CN[C@@H]1[C@H](O[C@@H]2O[C@H](CO)[C@@H](N)[C@H](O)[C@@H]2O)O[C@H]2C[C@@H](N)[C@@H](O[C@H]3[C@@H](O)[C@H](O)[C@H](N)C[C@@H]3N)O[C@H]2[C@H]1O", "GROUP": "inactive"}
{"COMPOUND": "CN(C)[C@H]1C(=O)C(C(=O)NCN2CCCC2)=C(O)[C@]2(O)C(=O)C3=C(O)c4c(O)cccc4[C@@](C)(O)[C@H]3C[C@@H]12", "GROUP": "inactive"}
{"COMPOUND": "CC[C@]1(C)CC(=O)NC1=O", "GROUP": "inactive"}
{"COMPOUND": "CC(=O)N(CC(O)CN(C(C)=O)c1c(I)c(C(=O)NC[C@@H](O)CO)c(I)c(C(=O)NC[C@@H](O)CO)c1I)c1c(I)c(C(=O)NC[C@@H](O)CO)c(I)c(C(=O)NC[C@@H](O)CO)c1I", "GROUP": "inactive"}
{"COMPOUND": "Cn1c(=O)c2c(ncn2C[C@@H](O)CO)n(C)c1=O", "GROUP": "inactive"}
{"COMPOUND": "Cc1cc(/C=C\\c2ccc3cc(N(C)C)ccc3[n+]2C)c(C)n1-c1ccccc1", "GROUP": "active"}
{"COMPOUND": "CC[C@H](NC(C)C)[C@H](O)c1ccc(O)c(O)c1", "GROUP": "inactive"}
{"COMPOUND": "CC(=O)O[C@@H](C)C[N+](C)(C)C", "GROUP": "inactive"}
